Reference source for all entries: the supplement of paper PMC12494721

# System: Escherichia coli IAI1
# experimental_details: growth (OD595) fold change vs plate DMSO controls (fold change (ratio)); higher = more growth
# test_conditions: incubation time: 27 h, anaerobic, 37 °C
reported_metric: growth
Reply: number alone, nothing else.

Below: 3 compounds and their reported growth.
compound	growth
CC[C@H](c1ccc(O)cc1)[C@@H](CC)c1ccc(O)cc1 [Hexestrol] (20 µM)	1.03
Nc1cccc2c1C(=O)N(C1CCC(=O)NC1=O)C2=O (stereo not given) [Pomalidomide] (20 µM)	1.02
C[C@]12CC[C@@H]3c4ccc(O)cc4CC[C@H]3[C@@H]1CC[C@@H]2O [Estradiol-17 beta] (20 µM)	1.01

Query block: Form field - read-out: growth; system: Escherichia coli IAI1; submitted item: CN1CCN2c3ncccc3Cc3ccccc3C2C1 (stereo not given) [Mirtazapine] (20 µM)
Result block: 1.01

Query block: Request body: readout growth, system Escherichia coli IAI1, query Cc1nc(C)c(Cl)c(O)c1Cl [Clopidol] (20 µM) . Return the value.
Result block: 1.01
